- tgt: Human Neutrophil Elastase (human, UniProt P08246)
- protocol_text: pH elution of display phage from hNE beads, extended protocol
Readings of Fraction of Input recovered at pH2.0 for the listed binders

Some solved entries appear below for comparison.
| binder | Fraction of Input recovered at pH2.0 |
| --- | --- |
| MA-BITI-E7-141 display phage (designed binder) RPDFCQLGYSAGPCVAMFPRYFYNGTSMACQTFVYGGCMGNGNNFVTEKDCLQTCRGA | 0.00032 fraction of input |
| AMINO1 display phage (designed binder) KEDFCQLGYSAGPCVAMFPRYFYNGTSMACETFQYGGCMGNGNNFVTEKDCLQTCRGA | 3.5e-05 fraction of input |
| MA-BITI-E7-1222 display phage (designed binder) RPDFCQLGYSTGPCVAMFPRYFYNGTSMACETFQYGGCMGNGNNFVTEKDCLQTCRGA | 6.4e-05 fraction of input |
| MUT1619 display phage (designed binder) RPDFCQLGYSAGPCVGMFSRYFYNGTSMACQTFVYGGCMGNGNNFVTEKDCLQTCRGA | 8.4e-05 fraction of input |

Query Fraction of Input recovered at pH2.0 for MUTT26A display phage (designed binder) RPDFCQLGYSAGPCVAMFPRYFYNGASMACQTFVYGGCMGNGNNFVTEKDCLQTCRGA
0.00033 fraction of input
